Target: T1, Anti-CD28 Fab (SEQ ID NOs: 202, 203)
T1 construct: biotinylated and captured on neutravidin coated plates in the phage ELISA
T1 sequence (VH, as listed by the source, chain 1 of 2): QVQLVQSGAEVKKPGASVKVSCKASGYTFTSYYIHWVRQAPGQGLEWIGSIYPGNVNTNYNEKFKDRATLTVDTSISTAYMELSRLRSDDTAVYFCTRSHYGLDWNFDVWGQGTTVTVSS
T1 sequence (VL, as listed by the source, chain 2 of 2): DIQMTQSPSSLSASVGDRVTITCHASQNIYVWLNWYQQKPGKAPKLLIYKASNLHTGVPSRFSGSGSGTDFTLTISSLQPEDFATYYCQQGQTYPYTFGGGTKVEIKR
Experiment: phage ELISA, Fab on plate, CD28 antigen as competitor
Parameter: Anti-CD28 Fab signal in the presence of CD28

// YCEGHLPMYMTKCL [Phage-686] : Anti-CD28 Fab signal in the presence of CD28 value = 0.06

// YCDGHLSEYIGKCL [Phage-629] : Anti-CD28 Fab signal in the presence of CD28 value = 0.06
